B1: OR4K15 (parent)
chain: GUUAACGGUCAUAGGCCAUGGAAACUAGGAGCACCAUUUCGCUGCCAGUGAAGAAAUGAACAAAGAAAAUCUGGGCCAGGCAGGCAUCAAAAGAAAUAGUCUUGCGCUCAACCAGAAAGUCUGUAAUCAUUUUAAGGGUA

# Variants of: B1
# ASSAY INFO: self-cleavage, relative activity (ratio to wild type); higher = more cleavage; in vitro, sequencing; the parent is a self-cleaving ribozyme
self-cleavage vs 1: at or above is Yes, below is No.

Enquiry: For this variant, is measured self-cleavage 1 or higher? AUUAACGGUCAUAGGCCAUGGAAACUAGGAGCACCAUUUCGCCGCCAGUGAAGAAAUGAACAAAGAAAAUCUGGGCCAGGCAGGCAUCAAAAGAAAUAGUCUUGCGCUCAACCAGAAAGUCUGUAAUCAUUUUAAGGGUA
Return: Yes

Enquiry: For this variant, is measured self-cleavage 1 or higher? GUUAACGGUCAUAGGCCAUGGAAACUAGGAGCACCAUUUCGCUGCCAGGGAAGAAAUGAACAAAGAAAGUCUGGGCCAGGCAGGCAUCAAAAGAAAUAGUCUUGCGCUCAACCAGAAAGUCUGUAAUCAUUUUAAGGGUA
Return: No

Enquiry: For this variant, is measured self-cleavage 1 or higher? GUUAACGGUCAUAGGCCAUGGAAACUAGGAGCACCAUUUCGCUGCCAGUGAAGAAAUGAAUAAAGAAAAUCUGGGCCAGGCAGGCAUCAAAAGAAAUAGUCUUGCGCUCAACCAGAAAGUCUGUAAUCAUUUUAAGGAUA
Return: Yes

Enquiry: For this variant, is measured self-cleavage 1 or higher? GUUAACGGUCAUAGGCCAUGGAAACUAGGAGCACCAUUUCGCUGCCAGUGAAGAAAUGAACAAAGAAGAUCUGGGCCAGGCAGGCAUCAAAUGAAAUAGUCUUGCGCUCAACCAGAAAGUCUGUAAUCAUUUUAAGGGUA
Return: Yes

Enquiry: For this variant, is measured self-cleavage 1 or higher? GUUAACGGGCAUAGGCCAUGGAAACUAGGAGCACCAUUUCGCUGCCAGUGAAGAAAUGAACAAAGAAAAUCUGGGCCAGGCAGGCAUCAAAAGAAAUAGUCUUGCGCUCAACCAGAAAAUCUGUAAUCAUUUUAAGGGUA
Return: Yes

Enquiry: For this variant, is measured self-cleavage 1 or higher? GUUAACGGUCAUAGGCCAUGGAAACUAGGAGCACCAUUUCGCUGCCAGUGAAGAAAUGAACAAAGAAAAUCUGGGCCAGGCAGGCAUCAAAAGAAAUAGUCUUGCGCUCAACCAGGAAGUCUGUAAUCAUCUUAAGGGUA
Return: No

Enquiry: For this variant, is measured self-cleavage 1 or higher? GUUAACAGUCAUAGGCCAUGGAAACUAGGAGCACCAUUUCGCUGCCAGUGAAGAAAUGAACAAAGGAAAUCUGGGCCAGGCAGGCAUCAAAAGAAAUAGUCUUGCGCUCAACCAGAAAGUCUGUAAUCAUUUUAAGGGUA
Return: Yes

Enquiry: For this variant, is measured self-cleavage 1 or higher? GUUAACGGUCAUAGGCCAUGGGAACUAGGAGCACCAUUUCGCUGCCAGUGAAGAAAUGAACAAAGAAAAUCUGGGCCAGGCAGGCAUCAAAAGAAAUAGUCGUGCGCUCAACCAGAAAGUCUGUAAUCAUUUUAAGGGUA
Return: Yes

Enquiry: For this variant, is measured self-cleavage 1 or higher? GUUAACGGUCAUAGGCCAUGGAAACUAGGAGCACCAUUUCGCUGCCAGUGAAGAAAUGAACAAAGAAAAUCGGGGCCAGGCAGGCAUCAAAAGAAGUAGUCUUGCGCUCAACCAGAAAGUCUGUAAUCAUUUUAAGGGUA
Return: No

Enquiry: For this variant, is measured self-cleavage 1 or higher? GUUAACGGUCAUAGGCCAUGGAAACUAGGAGCACCAUUUCGCUGCCAGUGAAGAAAUGAACAAAGAAAAUCUGGGCCAGGCAGGCAUCAAAAGAAAUAGUCUUGCGCUCAACCAGAAAGACUGUAAUCAUUUUAAGGGUA
Return: Yes

Enquiry: For this variant, is measured self-cleavage 1 or higher? GUAAACGGUCAUAGGCCAUGGAAACUAGGAGCACCAUUUCGCUGCCCGUGAAGAAAUGAACAAAGAAAAUCUGGGCCAGGCAGGCAUCAAAAGAAAUAGUCUUGCGCUCAACCAGAAAGUCUGUAAUCAUUUUAAGGGUA
Return: Yes

Enquiry: For this variant, is measured self-cleavage 1 or higher? GUUAACGGUCAUUGGCCAUGGAAACUAGGAGCACCAUUCCGCUGCCAGUGAAGAAAUGAACAAAGAAAAUCUGGGCCAGGCAGGCAUCAAAAGAAAUAGUCUUGCGCUCAACCAGAAAGUCUGUAAUCAUUUUAAGGGUA
Return: Yes

Enquiry: For this variant, is measured self-cleavage 1 or higher? GUUAACGGUCAUAGGCCAUGGAAACUAGGAGCACCAUUUCGCUGCCAGUGAAGAAAUGAACAAAGAAAAUCUGGGCCAGGCAGGCGUCAAAAGAAAUAGUCUUGCGCUCAACCAGAAAGUCUGUAAUCAUUAUAAGGGUA
Return: Yes

Enquiry: For this variant, is measured self-cleavage 1 or higher? GUUAACGGUCAUAGGCCAUGGAAACUAGGAGCACCAUUUCGCUGCCAGUGAAGAAAUGAACAAAGAAAAUCUGGGCCAGGCUGGCAUCAAAAGAAAUAGUCUUGCGCUCAACCAGAAAGUCUGUAAUCAUUUCAAGGGUA
Return: No

Enquiry: For this variant, is measured self-cleavage 1 or higher? GUUAACGGUCAUAGGCCAUGGAAACUAGGAGCACCAUUUCGCUGCCAGUGCAGAAAUGAACAAAGAAAAUCUGGGCCAGGCAGGCAUCAAAAGAAAUAGUCUUGCGCUCAACCAGAAAGUCUGUAAUCAUUUUAAGGGUA
Return: Yes

Enquiry: For this variant, is measured self-cleavage 1 or higher? GUUAACGGUCAUAGGCCAUGGAAACUAGGAGCACCAUUUCGCUGCCAGUGAAGAAAUGAACAAAGAAAAUCUGGGCCAGGCAGGCAUCAAAAGAAAUAGUCUUGAGCUCAAUCAGAAAGUCUGUAAUCAUUUUAAGGGUA
Return: No

Enquiry: For this variant, is measured self-cleavage 1 or higher? GUUAACGGUCAUAGGCCAUGGAAACUAGGAGCACCAUUUCGCUGCCAGUGAAGAAAUGAACAAAGAAAAUCUGGGCUAGGCAGGCAUCAAAAGAAAUAGUCUUGCGCUCAACUAGAAAGUCUGUAAUCAUUUUAAGGGUA
Return: No

Enquiry: For this variant, is measured self-cleavage 1 or higher? GUUAACGGUCAUAGGCCAUGGAAACUAGGAGCACCAUUUCGCUGCCAGUGAAGAAAUGAACAAAGAAAAUCUGGGCCAGGCAGGCGUCAAAAGAAAUAGUCUUGCGCUCAACCAGAAGGUCUGUAAUCAUUUUAAGGGUA
Return: Yes

Enquiry: For this variant, is measured self-cleavage 1 or higher? GUUAACGGUCAUAGGCCAUGGAAACUAGGAGCACCGUUUCGCUGCCAGUGAAGAAAUGAACAAAGAAAAUCUGGGCCAGGCAGGCAUCAAAAGAAAUAGUCUUGCGCUCAACCAGAAAGUCUGUAAUCAUAUUAAGGGUA
Return: No

Enquiry: For this variant, is measured self-cleavage 1 or higher? GUUAACGGUCAUAGGCCAUGGAAACUAGGAGCACCAUUUCGCUGCCAGUGAAGAAAUGAACAAAGAGAAUCUGGGCCAGGCAGGCAUCAAAAGAAAUAGUCUUGCGCUCAACCAGAAAGUCUGUAAUCAUUUUAAAGGUA
Return: Yes

Enquiry: For this variant, is measured self-cleavage 1 or higher? GUUAACGGUCAUUGGCCAUGGAAACUAGGAGCACCAUUUCGCUGCCAGUGAAGAAAUGAACAAAGAAAAUCUGGGCCAGGCAGGCAUCAAAAGAAAUUGUCUUGCGCUCAACCAGAAAGUCUGUAAUCAUUUUAAGGGUA
Return: Yes

Enquiry: For this variant, is measured self-cleavage 1 or higher? GUUAACGGUCAUAGGCCAUGAAAACUAGGAGCACCAUUUCGCUGCCAGUGAAGAAAUGAACAAAGAAGAUCUGGGCCAGGCAGGCAUCAAAAGAAAUAGUCUUGCGCUCAACCAGAAAGUCUGUAAUCAUUUUAAGGGUA
Return: Yes

Enquiry: For this variant, is measured self-cleavage 1 or higher? GUUAACGGUCAUAGGCCAUGGAAACUAGGAGCACCGUUUCGCUGCCAGUGAAGAAAUGAACAAAGAAAAUCUGGGCCAGGCAGGCAUCAAAAGAAAUAGUCUUGCGCUCACCCAGAAAGUCUGUAAUCAUUUUAAGGGUA
Return: No

Enquiry: For this variant, is measured self-cleavage 1 or higher? GUUAACGGUCAUAGGCCAUGGAAACUAGGAACACCAUUUCGCUGCCAGUGAAGAAAUGAACAAAGAAAUUCUGGGCCAGGCAGGCAUCAAAAGAAAUAGUCUUGCGCUCAACCAGAAAGUCUGUAAUCAUUUUAAGGGUA
Return: Yes

Enquiry: For this variant, is measured self-cleavage 1 or higher? GUUAACGGUCAUAGGCCAUGGAAACUAGGAGCACCAUUCCGCUGCCAGUGAAGAAAUGAACAAAGAAAAUCUGGGCAAGGCAGGCAUCAAAAGAAAUAGUCUUGCGCUCAACCAGAAAGUCUGUAAUCAUUUUAAGGGUA
Return: No

Enquiry: For this variant, is measured self-cleavage 1 or higher? GUUAACGGUCAUAGGCCAUGGAAACUAGGAGCACCACUUCGCUGCCAGUGAAGAAAUGAACAAAGAAAAUCUGGGCCUGGCAGGCAUCAAAAGAAAUAGUCUUGCGCUCAACCAGAAAGUCUGUAAUCAUUUUAAGGGUA
Return: No

Enquiry: For this variant, is measured self-cleavage 1 or higher? GUUAACGGUCAUAGGCCAUGGAAACUAGGAGCACCAUUUCGCUGCCAGUGAAGAAAUGAACAAAGAAAAUCUGGGCCAGGCAGGCAUCGAAAGAAAUAGUCUUGCGCUCAACCAGAAAGCCUGUAAUCAUUUUAAGGGUA
Return: No

Enquiry: For this variant, is measured self-cleavage 1 or higher? GUUAACGGUCAUAGGCCAUGGAAACUAGGAGCACCAUUUCGCUGCCAGUGUAGAAAUGAACAAAGAAAAUCUGGGCCAGGCAGGCAUCAAAAGAAAUAGUCCUGCGCUCAACCAGAAAGUCUGUAAUCAUUUUAAGGGUA
Return: Yes

Enquiry: For this variant, is measured self-cleavage 1 or higher? GUUAACGGUCAUAGGCCAUGGAAACUAGGAGCACCAUUUCGCUGCCAGUGAAGAAAUGAACAAAGAAAAUCUGGGCCAGGCAGGCAUCAAAAGAAAUAGUCUUGCGCUCAACCAGAAAGUCUGUACUCAUUGUAAGGGUA
Return: No

Enquiry: For this variant, is measured self-cleavage 1 or higher? GUUAACGGUCAUAGGCCAUGGAAACUAGGAGCACCAUUUCGCUGCCAGUGCAGAAAUGAACAAAGAAAAUCUGGGCCAGGCAGGCAUCAAAAGAUAUAGUCUUGCGCUCAACCAGAAAGUCUGUAAUCAUUUUAAGGGUA
Return: Yes
